Target: T1, human BMP-11 (GDF-11; R&D Systems) (human, UniProt O95390 299-407)
T1 sequence (looked up): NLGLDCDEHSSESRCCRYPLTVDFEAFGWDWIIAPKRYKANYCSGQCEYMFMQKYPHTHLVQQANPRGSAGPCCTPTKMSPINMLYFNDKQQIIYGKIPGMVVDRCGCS
Experiment: cell-based or functional assay
READOUT: ARE-luciferase IC50 (nM)

1. 2987_H07 (designed binder) MGVSDVPRDLEVVAATPTSLLISWTLPHAGRAHYYRITYGETGGNSPVQEFTVPGRGVTATISGLKPGVDYTITVYAVTVTTTKVIHYKPISINYRTEIDKPSQHHHHHH    5.5
2. ATI-1275 [N-ethylmaleimide] (designed binder, N-ethylmaleimide on the Cys of the EGSGC tail, cysteine mutant of 2524_D09) MGVSDVPRDLEVVAATPTSLLISWYLPYPAHMNYYRITYGETGGNSPVQEFTVPGRGLTATISGLKPGVDYTITVYAVTLTKSQILHHRPISINYRTEGSGCHHHHHH    0.14
3. 2522_C09 (designed binder) MGVSDVPRDLEVVAATPTSLLISWEVPRGLARYYRITYGETGGNSPVQEFTVLGRGSTATISGLKPGVDYTITVYAVTVYRDGPLLLAPISINYRTEIDKPSQHHHHHH    1.6
4. 2987_G09 (designed binder) MGVSDVPRDLEVVAATPTSLLISWTLPHAGRAHYYRITYGETGGNSPVQEFTVPGRGVTATISGLKPGVDYTITVYAVTVSSTKVIVYLPISINYRTEIDKPSQHHHHHH    0.91

// data source = patent US20170088602A1
